Measurement Name: H2 permeability
State the result as a value with its unit after it.

Read off the recorded H2 permeability for *c1ccc(Oc2ccc(C(c3ccc(Oc4ccc(N5C(=O)c6ccc(-c7ccc8c(c7)C(=O)N(*)C8=O)cc6C5=O)cc4)cc3)(C(F)(F)F)C(F)(F)F)cc2)cc1 (repeat unit) 17.3 Barrer

Read off the recorded H2 permeability for *c1ccc(Cc2ccc(N3C(=O)c4ccc(C(=O)Oc5ccc(C(c6ccc(OC(=O)c7ccc8c(c7)C(=O)N(*)C8=O)cc6)(C(F)(F)F)C(F)(F)F)cc5)cc4C3=O)cc2)cc1 (repeat unit) 11.8 Barrer

Read off the recorded H2 permeability for *Oc1ccc(C(c2ccc(Oc3ccc(S(=O)(=O)c4ccc(*)cc4)cc3)cc2)c2ccccc2C(=O)O)cc1 (repeat unit) 7.22 Barrer

---

For each record, check the reported N2 permeability: if it is below 1 Barrer write condition met, else write condition not met.

Quick check: N2 permeability of *Oc1ccc(S(=O)(=O)c2ccc(Oc3ccc(C(C)(C)c4ccc(*)cc4)cc3N)cc2)cc1 (repeat unit) under 1 Barrer? condition met

Quick check: N2 permeability of *c1ccc(N(c2ccccc2)c2ccc(N3C(=O)c4ccc(C(c5ccc6c(c5)C(=O)N(*)C6=O)(C(F)(F)F)C(F)(F)F)cc4C3=O)cc2)cc1 (repeat unit) under 1 Barrer? condition met

Quick check: N2 permeability of */C=C/c1ccc(*)cc1[Si](C)(C)CCCC (repeat unit) under 1 Barrer? condition not met

Quick check: N2 permeability of *N=P(*)(C)c1ccccc1 (repeat unit) under 1 Barrer? condition met

Quick check: N2 permeability of *NCC(C)(C)CC(C)CCNC(=O)c1ccc(C(*)=O)cc1 (repeat unit) under 1 Barrer? condition met

Quick check: N2 permeability of *c1ccc(N(c2ccc(OC)cc2)c2ccc(N3C(=O)c4ccc(C(c5ccc6c(c5)C(=O)N(*)C6=O)(C(F)(F)F)C(F)(F)F)cc4C3=O)cc2)cc1 (repeat unit) under 1 Barrer? condition met

Quick check: N2 permeability of *c1ccc(Oc2ccc(N3C(=O)c4ccc(Oc5ccc(C(c6ccc(Oc7ccc8c(c7)C(=O)N(*)C8=O)cc6)(C(F)(F)F)C(F)(F)F)cc5)cc4C3=O)cc2)cc1 (repeat unit) under 1 Barrer? condition met

Quick check: N2 permeability of *c1ccc(Oc2ccc(C(c3ccc(Oc4ccc(N5C(=O)c6ccc(C(=O)c7ccc8c(c7)C(=O)N(*)C8=O)cc6C5=O)cc4)cc3)(C(F)(F)F)C(F)(F)F)cc2)cc1 (repeat unit) under 1 Barrer? condition met

Quick check: N2 permeability of *c1ccc(C(C)(C)c2ccc(-c3nc4cc(-c5ccc6[nH]c(*)nc6c5)ccc4[nH]3)cc2)cc1 (repeat unit) under 1 Barrer? condition met

Quick check: N2 permeability of *c1c(C)cc(-c2cc(C)c(N3C(=O)c4cc5c(cc4C3=O)S(=O)(=O)c3cc4c(cc3S5(=O)=O)C(=O)N(*)C4=O)c(C)c2)cc1C (repeat unit) under 1 Barrer? condition not met

Quick check: N2 permeability of *c1c(C)cc(-c2cc(C)c(N3C(=O)c4ccc(Oc5cc(C)c(Oc6ccc7c(c6)C(=O)N(*)C7=O)c(C)c5C)cc4C3=O)c(C)c2)cc1C (repeat unit) under 1 Barrer? condition not met

Quick check: N2 permeability of *OC1OC(COC(=O)NC(C)(C)C)C(*)C(OCC)C1OCC (repeat unit) under 1 Barrer? condition not met

Quick check: N2 permeability of *Oc1c(C)cc(*)c(C(=O)c2ccccc2)c1C (repeat unit) under 1 Barrer? condition not met

Quick check: N2 permeability of *c1cc(C(c2ccc(C)c(-n3c(=O)c4cc5oc6cc7c(cc6oc5cc4c3=O)C3(CC(C)(C)c4cc5oc6cc8c(=O)n(*)c(=O)c8cc6oc5cc43)CC7(C)C)c2)(C(F)(F)F)C(F)(F)F)ccc1C (repeat unit) under 1 Barrer? condition not met

---

Measurement Name: N2 permeability
State the result as a value with its unit after it.

Read off the recorded N2 permeability for *NC(=O)c1ccc(C(c2ccc(C(=O)Nc3c(C)cc4c(c3C)C3c5ccccc5C4c4cc(C)c(*)c(C)c43)cc2)(C(F)(F)F)C(F)(F)F)cc1 (repeat unit) 5.8 Barrer

Read off the recorded N2 permeability for *c1c(C)c2c(c(N3C(=O)c4ccc(Oc5ccc6c(c5)C(=O)N(*)C6=O)cc4C3=O)c1C)C(C)(C)CC2 (repeat unit) 10.3 Barrer

Read off the recorded N2 permeability for *c1c(C)c(C)c(N2C(=O)c3ccc(C(c4ccc5c(c4)C(=O)N(*)C5=O)(C(F)(F)F)C(F)(F)F)cc3C2=O)c(C)c1C (repeat unit) 37.8 Barrer

Read off the recorded N2 permeability for *c1ccc2c(c1)C1c3ccccc3C2c2ccc(N3C(=O)c4ccc(C(c5ccc6c(c5)C(=O)N(*)C6=O)(C(F)(F)F)C(F)(F)F)cc4C3=O)cc21 (repeat unit) 5.32 Barrer

Read off the recorded N2 permeability for *c1ccc(-c2ccc(N3C(=O)c4ccc(Oc5cc(C(C)(C)C)ccc5Oc5ccc6c(c5)C(=O)N(*)C6=O)cc4C3=O)c(OC)c2)cc1OC (repeat unit) 0.21 Barrer

Read off the recorded N2 permeability for *Oc1ccc(S(=O)(=O)c2ccc(Oc3ccc(-c4ccc(*)cc4)cc3)cc2)cc1 (repeat unit) 0.236 Barrer

---

Please go through the items and note down their log10 CH4 permeability.
Transform log10 | Measure CH4 permeability | Unit Barrer

Read off the recorded log10 CH4 permeability for *Oc1ccc(C2(c3ccc(OC(=O)c4cccc(C(*)=O)c4)cc3)c3ccccc3-c3ccccc32)cc1 (repeat unit) -0.15

Read off the recorded log10 CH4 permeability for *c1cc2c(cc1O)C1(CC2(C)C)CC(C)(C)c2cc(N3C(=O)C4C(C3=O)C3(Br)C(Br)=C(Br)C4(Br)C4C(=O)N(*)C(=O)C43)c(O)cc21 (repeat unit) 0.69

Read off the recorded log10 CH4 permeability for *=CC1CC(C=*)C(C(F)(F)F)(C(F)(F)F)C1(F)F (repeat unit) 0.98

Read off the recorded log10 CH4 permeability for *c1ccc(Oc2ccc(C(c3ccc(Oc4ccc(N5C(=O)c6ccc(-c7ccc8c(c7)C(=O)N(*)C8=O)cc6C5=O)cc4)cc3)(C(F)(F)F)C(F)(F)F)cc2)cc1 (repeat unit) -0.74

Read off the recorded log10 CH4 permeability for *c1ccc(C(c2ccc(-n3c(=O)c4cc5c(=O)n(*)c(=O)c5cc4c3=O)cc2)(C(F)(F)F)C(F)(F)F)cc1 (repeat unit) -0.11

Read off the recorded log10 CH4 permeability for *c1ccc(-c2ccc(-c3ccc(C(*)(c4ccccc4)C(F)(F)F)cc3)cc2)cc1 (repeat unit) 1.11

Read off the recorded log10 CH4 permeability for *Oc1c(Br)cc(C2(c3cc(Br)c(OC(=O)c4cccc(C(*)=O)c4)c(Br)c3)OC(=O)c3ccccc32)cc1Br (repeat unit) -0.69

Read off the recorded log10 CH4 permeability for *c1c(C)cc(-c2cc(C)c(N3C(=O)c4cc5c(cc4C3=O)S(=O)(=O)c3cc4c(cc3S5(=O)=O)C(=O)N(*)C4=O)c(C)c2)cc1C (repeat unit) 0.08

Read off the recorded log10 CH4 permeability for *c1c(C)cc(C)c(N2C(=O)c3ccc(-c4ccc5c(c4)C(=O)N(*)C5=O)cc3C2=O)c1C (repeat unit) 0.90

Read off the recorded log10 CH4 permeability for *Oc1ccc(S(=O)(=O)c2ccc(Oc3ccc(C(C)(C)c4ccc(*)cc4)cc3N)cc2)cc1 (repeat unit) -0.92

Read off the recorded log10 CH4 permeability for *CCOC(=O)c1ccc(C(=O)O*)cc1 (repeat unit) 0.48

Read off the recorded log10 CH4 permeability for *Oc1ccc(S(=O)(=O)c2ccc(Oc3ccc(-c4ccc(*)cc4)cc3)cc2)cc1 (repeat unit) -0.59

Read off the recorded log10 CH4 permeability for *c1ccc2c3c(ccc2c1)OC1Oc2ccc4cc(N5C(=O)c6ccc(C(c7ccc8c(c7)C(=O)N(*)C8=O)(C(F)(F)F)C(F)(F)F)cc6C5=O)ccc4c2C31 (repeat unit) -0.15

Read off the recorded log10 CH4 permeability for *Oc1ccc2c(c1)C1(CC2(C)C)CC(C)(C)c2ccc(OC(=O)c3cccc(C(*)=O)c3)cc21 (repeat unit) 0.06

Read off the recorded log10 CH4 permeability for *C(=C(*)c1ccc2c(c1)CCC2)c1ccc([Si](C)(C)C)cc1 (repeat unit) 2.67

---

Measurement Name: O2 permeability (Barrer)
Express your answer in Barrer, writing the number without its unit.

Read off the recorded O2 permeability for *Oc1ccc(S(=O)(=O)c2ccc(Oc3c(C)cc(C(c4cc(C)c(*)c(C)c4)(C(F)(F)F)C(F)(F)F)cc3C)cc2C(O)(C(F)(F)F)C(F)(F)F)c(C(O)(C(F)(F)F)C(F)(F)F)c1 (repeat unit) 14

Read off the recorded O2 permeability for *CC(*)C(=O)OCCCCCCCCCC (repeat unit) 47.6

Read off the recorded O2 permeability for *C(=C(*)c1ccc([Si](C)(C)CCCCCCCC)cc1)c1ccc(CCCC)cc1 (repeat unit) 25

Read off the recorded O2 permeability for *c1ccc(Oc2ccc(C3(c4ccc(Oc5ccc(N6C(=O)c7ccc(C(c8ccc9c(c8)C(=O)N(*)C9=O)(C(F)(F)F)C(F)(F)F)cc7C6=O)cc5C(F)(F)F)cc4)c4ccccc4-c4ccccc43)cc2)c(C(F)(F)F)c1 (repeat unit) 20
